Molecular target: Glutamate receptor ionotropic, AMPA (Rattus norvegicus) (UniProt P19491+P19492+P19493+P19490)
Assay: Positive allosteric modulation at AMPAR in rat primary cortical cells assessed as concentration required for 2 fold increase in AMPA induced current amplitude by FlipR assay
Assay type: cell-based
Conditions: Primary cortical neuron, filed as positive allosteric modulator
For each of the compounds below, state its EC.
Answers are plain numbers, in µM.

1. O=S1(=O)c2cc(F)ccc2N(C2CC2)CN1C(F)F :: 6.9

Below are 3 compounds. Give each one its EC.
1. O=S1(=O)NCN(C2CC2)c2ccc(F)cc21
2. CN1CN(C2CC2)c2ccc(Cl)cc2S1(=O)=O
3. CC1N(C)c2ccc(F)cc2S(=O)(=O)N1C (stereo not drawn)

0.2
13.4
4.1

Below are 2 compounds. Give each one its EC.
1. CC1N(C2CC2)c2ccc(Cl)cc2S(=O)(=O)N1CF (stereo not drawn)
2. O=S1(=O)NCN(C2CC2)c2ccc(Cl)cc21

[2.5, 2.2]
